target: c-Src SH2; experiment: SH2 binding enrichment of the phosphorylated peptide, bacterial display (enrichment ratio); higher = better substrate or ligand; peptides without Tyr show the background
MEASUREMENT_NAME: SH2 binding enrichment

The examples below pair each entry with its known result.
AHAGEYGVEAL [HBA1_Y25_A27V] :: 0.493
LEEFQYIGESQ [MSH2_Y856] :: 0.535

I = VDDEIYFFRKP [PBRM1_Y1289_YF]
II = QTENKYDSVSG [EIF2AK3_Y565]
Would you let me know which has the greater SH2 binding enrichment value, I or II ? Pick one; state its label. II
(II: 7.1, I: 0.466)

P = KDHPDYKFQRR [SOX10_Y171_P175R_YF]
Q = EEGRVYVFHLS [ITGAE_Y549_R552H_YF]
R = NACGLYHKMNG [GATA5_Y216]
# sort list by recorded SH2 binding enrichment, greatest to least Give the labels in the order specified. R, P, Q

I = QYQLKYSETPF [SIX6OS1_Y129]
II = PSAEGYQDVRD [ABLIM1_Y439]
III = RNGDRYFKEIV [DCX_Y64_G67E]
Please list these in order of increasing SH2 binding enrichment. Thank you! Give the labels in the order specified. III, I, II

I = HVSISYDIPPT [GAB1_Y307]
II = KSPGEYVNIEF [IRS1_Y896]
III = FKNGDYNEVMK [LCT_Y1638]
IV = FQNGMYGLHQD [SGSH_Y89_H84Y_YF]
# sort list by recorded SH2 binding enrichment, greatest to least Give the labels in the order specified. II, III, I, IV

----------
target: Grb2 SH2 (UniProt P62993); assay: SH2 binding enrichment of the phosphorylated peptide, bacterial display (enrichment ratio); higher = better substrate or ligand; peptides without Tyr show the background
MEASUREMENT_NAME: SH2 binding enrichment

HYEFKYVINAI [MAOA_Y268_C266F] :: 0.868
VMAVAYRLAEQ [HK1_Y461_T457M] :: 1.26
FKDYFYCWNTS [AICDA_Y146_F151S] :: 0.73

A = AGLVQYFMEHH [PTPN11_Y80_E76G_YF]
B = AERKLYRNVML [ZNF569_Y33_Q29E]
C = NYSKMYCNPDA [KNL1_Y489_A486S]
Please list these in order of increasing SH2 binding enrichment. Thank you! Give the labels in the order specified. A, B, C
(A: 0.844, B: 1.76, C: 3.18)

P = IRTDAYVWAMT [RPE65_Y89_R91W]
Q = ALRHFYKLNII [ETV6_Y402_YF]
R = LLSVAYQNVVG [YWHAG_Y49_K50Q]
Please list these in order of increasing SH2 binding enrichment. Thank you! Give the labels in the order specified. P, Q, R

P = RYLTRYIYNRE [HLA-DQB1_Y62_V59L]
Q = LIHTKYPQLLP [AHCY_Y143]
Would you let me know which has the greater SH2 binding enrichment value, P or Q ? Pick one; state its label. P

----------
target: Hck (UniProt P08631); test: phosphorylation enrichment, bacterial display (enrichment ratio); higher = better substrate or ligand; peptides without Tyr show the background
Sequence (P08631 whole entry, looked up): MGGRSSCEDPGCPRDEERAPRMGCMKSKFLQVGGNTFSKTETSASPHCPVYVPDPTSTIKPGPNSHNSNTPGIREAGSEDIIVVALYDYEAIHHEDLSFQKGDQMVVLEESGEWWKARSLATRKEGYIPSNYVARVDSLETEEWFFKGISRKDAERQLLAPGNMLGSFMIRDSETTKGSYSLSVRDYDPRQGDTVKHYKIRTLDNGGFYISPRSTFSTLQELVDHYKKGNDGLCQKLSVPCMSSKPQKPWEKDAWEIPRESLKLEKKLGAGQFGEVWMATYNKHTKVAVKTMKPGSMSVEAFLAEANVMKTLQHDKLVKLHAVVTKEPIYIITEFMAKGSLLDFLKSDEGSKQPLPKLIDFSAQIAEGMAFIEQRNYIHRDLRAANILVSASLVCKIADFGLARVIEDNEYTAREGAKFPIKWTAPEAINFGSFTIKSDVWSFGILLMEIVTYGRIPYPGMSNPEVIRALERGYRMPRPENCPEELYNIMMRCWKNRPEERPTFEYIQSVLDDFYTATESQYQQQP
MEASUREMENT_NAME: phosphorylation enrichment
Reply briefly: the number, and no unit.

DEEFEYMNRRR [ERBB3_Y1199_YF] :: 0.497
SSQILYKLEQS [THADA_Y701_V699I] :: 0.49
QMRLKYSQSDL [SMC1A_Y714] :: 0.369
DRLASYLDKMR [KRT17_Y98_V102M] :: 0.473
AHAGEYGAGAL [HBA1_Y25_E28G] :: 0.49

Observed phosphorylation enrichment on Hck (UniProt P08631), entry LTSKPYAFTAW [NDUFS1_Y236_R241W] , equals 0.353

Observed phosphorylation enrichment on Hck (UniProt P08631), entry TTKGAYSLSIR [YES1_Y194] , equals 0.445

Observed phosphorylation enrichment on Hck (UniProt P08631), entry TSQSQYFSFRE [CCDC170_Y323] , equals 1.72

Observed phosphorylation enrichment on Hck (UniProt P08631), entry SLEKSYELLDG [ACTB_Y240_P243L] , equals 0.595

Observed phosphorylation enrichment on Hck (UniProt P08631), entry EPSVDYCVVKI [CAD_Y735] , equals 0.664

Observed phosphorylation enrichment on Hck (UniProt P08631), entry FGGLRCGFGVL [KRTAP20-2_Y13_Y13C_YF] , equals 0.403

Observed phosphorylation enrichment on Hck (UniProt P08631), entry AEPHTYEEPGR [EPHA8_Y616] , equals 0.485

Observed phosphorylation enrichment on Hck (UniProt P08631), entry MSSLFYANTLF [HOXB7_Y6_YF] , equals 0.905

Observed phosphorylation enrichment on Hck (UniProt P08631), entry REVKAYGAGLL [TH_Y419_G414R] , equals 0.419
